Cited source: the supplement of paper PMC9112550

Tested on: Escherichia coli TOP10;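 also: peptides expressed intracellularly from a pBAD plasmid library in pooled LB shake-flask culture, induced with 0.3% L-arabinose, DNA abundance read by NGS, three biological replicates, DESeq2 with apeglm shrinkage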
Test: shrunken log2 fold change of peptide-encoding DNA abundance (4.5 h post-induction vs induction); higher = less antimicrobial activity (less host growth inhibition)
Settings: time post-induction: 4.5 h; library: site-saturation at positions 5, 18, 19, 20
Definition: the class of an entry is the range in bin 1: < -0.1; bin 2: ≥ -0.1 and < 0.07; bin 3: ≥ 0.07 that contains its shrunken log2 fold change.

residue_codes=RRIRHRPPRLPRPRPRPIHHPRP target="Escherichia coli TOP10" classification="bin 1"
residue_codes=RRIRNRPPRLPRPRPRPPNCPRP target="Escherichia coli TOP10" classification="bin 2"
residue_codes=RRIRHRPPRLPRPRPRPLLPPRP target="Escherichia coli TOP10" classification="bin 2"
residue_codes=RRIRYRPPRLPRPRPRPFLEPRP target="Escherichia coli TOP10" classification="bin 1"
residue_codes=RRIRRRPPRLPRPRPRPFGHPRP target="Escherichia coli TOP10" classification="bin 2"
residue_codes=RRIRWRPPRLPRPRPRPLQWPRP target="Escherichia coli TOP10" classification="bin 3"
residue_codes=RRIRGRPPRLPRPRPRPLDSPRP target="Escherichia coli TOP10" classification="bin 3"
residue_codes=RRIRTRPPRLPRPRPRPCLVPRP target="Escherichia coli TOP10" classification="bin 1"
residue_codes=RRIRYRPPRLPRPRPRPQHIPRP target="Escherichia coli TOP10" classification="bin 1"
residue_codes=RRIRDRPPRLPRPRPRPEFIPRP target="Escherichia coli TOP10" classification="bin 3"
residue_codes=RRIRPRPPRLPRPRPRPLNPPRP target="Escherichia coli TOP10" classification="bin 1"
residue_codes=RRIRDRPPRLPRPRPRPVPHPRP target="Escherichia coli TOP10" classification="bin 2"
residue_codes=RRIRTRPPRLPRPRPRPYDIPRP target="Escherichia coli TOP10" classification="bin 1"
residue_codes=RRIRRRPPRLPRPRPRPWRPPRP target="Escherichia coli TOP10" classification="bin 3"
residue_codes=RRIRFRPPRLPRPRPRPKFYPRP target="Escherichia coli TOP10" classification="bin 1"
residue_codes=RRIRLRPPRLPRPRPRPFDAPRP target="Escherichia coli TOP10" classification="bin 3"
residue_codes=RRIRGRPPRLPRPRPRPFRYPRP target="Escherichia coli TOP10" classification="bin 3"
residue_codes=RRIRGRPPRLPRPRPRPYIRPRP target="Escherichia coli TOP10" classification="bin 1"
residue_codes=RRIRYRPPRLPRPRPRPHDRPRP target="Escherichia coli TOP10" classification="bin 2"
residue_codes=RRIRTRPPRLPRPRPRPFQYPRP target="Escherichia coli TOP10" classification="bin 2"
residue_codes=RRIRFRPPRLPRPRPRPHVAPRP target="Escherichia coli TOP10" classification="bin 3"
residue_codes=RRIRCRPPRLPRPRPRPKIQPRP target="Escherichia coli TOP10" classification="bin 1"
residue_codes=RRIRPRPPRLPRPRPRPQPDPRP target="Escherichia coli TOP10" classification="bin 2"
residue_codes=RRIRVRPPRLPRPRPRPIWFPRP target="Escherichia coli TOP10" classification="bin 2"
residue_codes=RRIRPRPPRLPRPRPRPEEEPRP target="Escherichia coli TOP10" classification="bin 3"
